B1: C10orf62 (parent)
chain: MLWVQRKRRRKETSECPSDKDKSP

variants of: B1; experiment: protein stability index of a GFP-peptide fusion (GPS, HEK-293T) (PSI 1-6); higher = more stable; conditions: c terminus: a fixed tail appended;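 also: lentivirally expressed fusions sorted by FACS into six bins by GFP to DsRed ratio, PSI derived from sequencing read proportions per bin multiplied by bin number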
protein stability index for assorted variants

# variant, protein stability index
rows = [
    ("T13E", 2.99),
    ("M1F", 2.98),
    ("E15T", 2.95),
]
